System: mineralocorticoid receptor of mammalian kidney
ASSAY_EXPLANATION: Mineralocorticoid receptor affinity (competition with 3H-aldosterone)
Type: binding
RUN_PARAMETERS: amount of aldosterone vs amount of steroid for 50% reduction in binding of 1.3×10^-9 M 3H-aldosterone, kidney cytosol; aldosterone = 100
Listed here are molecules together with their documented Corticosteroid Receptor Affinity % Mineralocorticoid.
MEASUREMENT_TYPE: Corticosteroid Receptor Affinity % Mineralocorticoid (%)

MOLECULE	TESTED_SYSTEM	RESULT_NUMBER
CCC(=O)OCC(=O)[C@H]1CC[C@H]2[C@@H]3[C@H](SC(C)=O)CC4=CC(=O)CC[C@]4(C)[C@H]3CC[C@]12C	mineralocorticoid receptor of mammalian kidney	38
CC(=O)S[C@@H]1CC2=CC(=O)CC[C@]2(C)[C@H]2CC[C@]3(C)[C@@H](C(=O)CO)CC[C@H]3[C@H]12	mineralocorticoid receptor of mammalian kidney	35
CC(=O)OCC(=O)[C@H]1CC[C@H]2[C@@H]3[C@H](SC(C)=O)CC4=CC(=O)CC[C@]4(C)[C@H]3CC[C@]12C	mineralocorticoid receptor of mammalian kidney	65
CC(=O)S[C@@H]1CC2=CC(=O)CC[C@]2(C)[C@H]2CC[C@]3(C)[C@@H](C(=O)COC(=O)C(C)(C)C)CC[C@H]3[C@H]12	mineralocorticoid receptor of mammalian kidney	45
CCCCCCC(=O)OCC(=O)[C@H]1CC[C@H]2[C@@H]3[C@H](SC(C)=O)CC4=CC(=O)CC[C@]4(C)[C@H]3CC[C@]12C	mineralocorticoid receptor of mammalian kidney	27
CC(=O)S[C@@H]1CC2=CC(=O)CC[C@]2(C)[C@H]2CC[C@@]3(C)[C@@H](CC[C@@]34CCC(=O)O4)[C@H]12 [Spironolactone, spironolactone, reference compound]	mineralocorticoid receptor of mammalian kidney	18
